# pEC50 per record follows
Test system: Influenza A virus
TEST METHOD NOTES: Antiviral activity against baloxavir-resistant Influenza A virus A/PR/8/34 infected in MDCK cells assessed as reduction in virus-induced cytopathic effect incubated for 5 days by CCK8 based microplate spectrophotometric analysis
Type: functional, organism-based
COND: mdck
pEC50: −log10 of the molar value.
READOUT KIND: pEC50

{"COMPOUND": "CN1C(=O)c2c(O)c(=O)ccn2N2[C@H](c3ccccc3)c3cc(F)c(F)cc3OCC[C@@H]12", "TARGET UNDER TEST": "Influenza A virus", "READOUT KIND": "pEC50", "OBSERVED RESULT": 7.18}
{"COMPOUND": "O=C1c2c(O)c(=O)ccn2N([C@@H]2c3ccccc3SCc3c2ccc(F)c3F)[C@@H]2COCCN12 [BALOXAVIR]", "TARGET UNDER TEST": "Influenza A virus", "READOUT KIND": "pEC50", "OBSERVED RESULT": 6.85}

* * *

Ratio EC50 values by entry
System: Influenza A virus
TEST METHOD NOTES: Selectivity ratio of EC50 for antiviral activity against Influenza A virus A/PR/8/34 PA-I38T infected in MDCK cells to EC50 for antiviral activity against Influenza A virus A/PR/8/34 (H1N1) infected in MDCK cells
Assay type: functional
READOUT KIND: Ratio EC50

{"COMPOUND": "CN1C(=O)c2c(O)c(=O)ccn2N2[C@H](c3ccccc3Br)c3cc(F)c(F)cc3OCC[C@@H]12 (racemic)", "TARGET UNDER TEST": "Influenza A virus", "OBSERVED RESULT": 15}
{"COMPOUND": "CN1C(=O)c2c(O)c(=O)ccn2N2[C@H](c3ccccc3)c3cc(F)c(F)cc3OCC[C@@H]12", "TARGET UNDER TEST": "Influenza A virus", "OBSERVED RESULT": 9.2}
{"COMPOUND": "CC(C)N1C(=O)c2c(O)c(=O)ccn2N2[C@H](c3ccccc3)c3ccccc3OCC[C@@H]12 (racemic)", "TARGET UNDER TEST": "Influenza A virus", "OBSERVED RESULT": 8.2}
{"COMPOUND": "CN1C(=O)c2c(O)c(=O)ccn2N2[C@H](c3ccccc3)c3ccccc3OCC[C@@H]12", "TARGET UNDER TEST": "Influenza A virus", "OBSERVED RESULT": 15}
{"COMPOUND": "CN1C(=O)c2c(O)c(=O)ccn2N2[C@H](c3ccc(F)c(F)c3)c3cc(F)c(F)cc3OCC[C@@H]12", "TARGET UNDER TEST": "Influenza A virus", "OBSERVED RESULT": 8.4}
{"COMPOUND": "CN1C(=O)c2c(O)c(=O)ccn2N2[C@H](c3ccccc3)c3ccc(F)c(F)c3OCC[C@@H]12 (racemic)", "TARGET UNDER TEST": "Influenza A virus", "OBSERVED RESULT": 10}
{"COMPOUND": "O=C1c2c(O)c(=O)ccn2N([C@@H]2c3ccccc3SCc3c2ccc(F)c3F)[C@@H]2COCCN12", "TARGET UNDER TEST": "Influenza A virus", "OBSERVED RESULT": 68}
{"COMPOUND": "CN1C(=O)c2c(O)c(=O)ccn2N2[C@H](c3ccccc3F)c3cc(F)c(F)cc3OCC[C@@H]12", "TARGET UNDER TEST": "Influenza A virus", "OBSERVED RESULT": 7.2}
{"COMPOUND": "CN1C(=O)c2c(O)c(=O)ccn2N2[C@H](c3ccc(F)cc3)c3cc(F)c(F)cc3OCC[C@@H]12", "TARGET UNDER TEST": "Influenza A virus", "OBSERVED RESULT": 14}
